test system: L1210 leukemia ip in BDF1 mice, survival T/C; assay: NCI In Vivo Anticancer Drug Screen. Data for tumor model L1210 Leukemia (intraperitoneal) in B6D2F1 (BDF1) mice; settings: endpoint: mean survival time; dose: 400.0 mg/kg/injection; schedule: Q04DX003 (ip); vehicle: saline
Inconclusive results and toxic doses are left out. Rule as the data show it: active = T/C of 150% or more; inactive = T/C below 125%. Square brackets hold non-standard residues; d marks the D form. Peptide text beside a SMILES is read from it. Ac5c = NC1(C(=O)O)CCCC1
The reply should be one of these categories: 1 (yes) = active, 0 (no) = inactive

# compound, tested.system, class
rows = [
    ("CCCCCCCC(=O)/C=C/c1ccc(C)cc1", "L1210 leukemia ip in BDF1 mice, survival T/C", "0 (no)"),
    ("C[n+]1cccc(S(=O)(=O)[O-])c1", "L1210 leukemia ip in BDF1 mice, survival T/C", "0 (no)"),
    ("ClP1(N2CCCCC2)=NP(Cl)(N2CCCCC2)=NP(Cl)(N2CCCCC2)=NP(Cl)(N2CCCCC2)=N1 (configuration not stated)", "L1210 leukemia ip in BDF1 mice, survival T/C", "0 (no)"),
    ("CCOC(/C=C(\\C)C(C)=O)OCC", "L1210 leukemia ip in BDF1 mice, survival T/C", "0 (no)"),
    ("NCC(=O)NC1(C(=O)O)CCCC1 (H-Gly-[Ac5c]-OH)", "L1210 leukemia ip in BDF1 mice, survival T/C", "1 (yes)"),
    ("CC(Br)C(=O)NCC(=O)NCC(=O)O (configuration not stated)", "L1210 leukemia ip in BDF1 mice, survival T/C", "0 (no)"),
    ("C=C(Cl)CSC(=N)N", "L1210 leukemia ip in BDF1 mice, survival T/C", "0 (no)"),
    ("COC(=N)c1ccc(O)c(C)c1", "L1210 leukemia ip in BDF1 mice, survival T/C", "0 (no)"),
    ("COC(=O)c1ccc(C(=O)OC)[n+]([O-])c1", "L1210 leukemia ip in BDF1 mice, survival T/C", "0 (no)"),
    ("O=C(O)CCC(NC(=O)C1CCCCC1C(=O)O)C(=O)O (configuration not stated)", "L1210 leukemia ip in BDF1 mice, survival T/C", "0 (no)"),
]

Fill in: this test's call for `CCOP(=O)(NN(C)C)OCC` is ___ 0 (no)

Fill in: this test's call for `CCOc1ccn(CC(=O)Nc2nccs2)c(=O)n1` is ___ 0 (no)

Fill in: this test's call for `CCOC(=O)CP(=O)(OCC)OCC` is ___ 0 (no)

Fill in: this test's call for `CCOC(=O)c1cnc(SCC)nc1N` is ___ 0 (no)

Fill in: this test's call for `Nc1ncnc(N)c1NC(=O)c1cccnc1` is ___ 0 (no)

Fill in: this test's call for `NC(=O)CCP(=O)(CCC(N)=O)CCC(N)=O` is ___ 0 (no)

Fill in: this test's call for `O=C1c2ccccc2C(=O)N1OCc1ccc(CON2C(=O)c3ccccc3C2=O)cc1` is ___ 0 (no)

Fill in: this test's call for CC(=O)OC1C=CC(Oc2ccc([N+](=O)[O-])cc2)OC1CO (configuration not stated) is ___ 0 (no)

Fill in: this test's call for `Clc1ccc(Cl)c(-c2csc(Nc3cccnc3)n2)c1` is ___ 0 (no)

Fill in: this test's call for `O=C(O)c1ccc(SSc2ccc(C(=O)O)cn2)nc1` is ___ 0 (no)

Fill in: this test's call for OCC1COc2ccccc2O1 (configuration not stated) is ___ 0 (no)

Fill in: this test's call for CCOC(=O)C1c2cccc(O)c2C=CN1C(C)=O (configuration not stated) is ___ 0 (no)

Just for reference, PubChem BioAssay AID248 is where these values come from.
